Target: T1, His-tagged CEACAM1 (human, UniProt P13688 35-428)
T1 construct: 45 kDa SPR analyte; also called CEACAM1-HIS; CEACAM1 analyte
T1 sequence: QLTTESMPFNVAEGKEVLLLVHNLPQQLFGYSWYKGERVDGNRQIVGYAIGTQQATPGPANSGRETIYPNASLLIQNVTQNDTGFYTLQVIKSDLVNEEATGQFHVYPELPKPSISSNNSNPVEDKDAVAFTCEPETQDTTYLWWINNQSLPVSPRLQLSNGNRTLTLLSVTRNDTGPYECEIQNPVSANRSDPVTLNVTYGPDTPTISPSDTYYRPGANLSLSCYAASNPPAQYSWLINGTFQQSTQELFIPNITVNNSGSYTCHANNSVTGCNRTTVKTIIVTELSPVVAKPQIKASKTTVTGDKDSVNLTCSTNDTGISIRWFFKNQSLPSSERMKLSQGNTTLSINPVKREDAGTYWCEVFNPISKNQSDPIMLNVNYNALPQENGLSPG
Assay: SPR single-cycle, supernatant IgG captured
Overview of reported koff across a group of binders:
value.type: koff (s⁻¹)

INSERT INTO results (binder, value_type, obs_value) VALUES
  ('VH1/CP08E01 (antibody, IgG4, V domains shown, IgG4 (S241P), kappa; also called Parent VH/CP08E01) VH: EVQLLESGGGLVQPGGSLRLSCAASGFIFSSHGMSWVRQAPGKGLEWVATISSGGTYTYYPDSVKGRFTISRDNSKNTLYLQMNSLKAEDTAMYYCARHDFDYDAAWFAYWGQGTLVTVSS VL: EIVLTQSPATLSLSPGERATLSCRANSAVSYMYWYQQKPGQAPRPWIYLTSNRATGVPARFSGSGSGTDYTLTISSLEPEDFAVYYCQQWTTFPPTFGQGTKLEIK', 'koff', 0.054),
  ('CP09E03/Vκ8 S29A (antibody, IgG4, V domains shown, IgG4 (S241P), kappa) VH: EVQLLESGGGLVQPGGSLRLSCAASGFTFSAHAISWVRQAPGKGLEWVATISSGGTYTYYPDSVKGRFTISRDNSKNTLYLQMNSLKAEDTAMYYCARHDFDYDAAWFAYWGQGTLVTVSS VL: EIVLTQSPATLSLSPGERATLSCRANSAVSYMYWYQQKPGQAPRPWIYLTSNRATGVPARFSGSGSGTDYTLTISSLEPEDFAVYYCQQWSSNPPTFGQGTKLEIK', 'koff', 0.037),
  ('CP09F03/Vκ8 S29A (antibody, IgG4, V domains shown, IgG4 (S241P), kappa) VH: EVQLLESGGGLVQPGGSLRLSCAASGFTFNNHGMSWVRQAPGKGLEWVATISSGGTYTYYPDSVKGRFTISRDNSKNTLYLQMNSLKAEDTAMYYCARHDFDYDAAWFAYWGQGTLVTVSS VL: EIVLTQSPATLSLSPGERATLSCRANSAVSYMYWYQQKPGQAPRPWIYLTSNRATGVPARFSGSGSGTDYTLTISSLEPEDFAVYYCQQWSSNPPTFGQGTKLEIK', 'koff', 0.076);

Hello, the source for this data is patent US20250074980A1, in case you need it.
